Source: a melting point compilation (Tetko et al.; mined from patent text by program, amines drawn as free bases though some values may be those of a salt)

Assignment: determine reported melting point for the given compounds.

compound C=CCC(F)(F)C(=O)C(Cc1ccccc1)NC(=O)c1ccccc1 (stereo unspecified) , melting point observed: 98 °C

compound "Cn1c(CC#N)ccc1C(=O)c1ccc([N+](=O)[O-])cc1" , melting point observed: 167 to 169 °C

compound "CC(=O)OCCn1c2c(c3ccccc3c1=O)C(=O)c1ccccc1-2" , melting point observed: 221 to 224 °C

compound CCNC(=O)C(C)Oc1ncn(-c2cccc(C(F)(F)F)c2)n1 (stereo unspecified) , melting point observed: 135 to 137 °C

compound "CCCCCCCCN(C[C@H]1CC[C@@H](CN(CCCCCCCC)C(=O)Nc2ccc(N(C)C)cc2)CC1)C(=O)Nc1ccc(N(C)C)cc1" , melting point observed: 105 to 107 °C

compound "C#CCOc1cc(Oc2ccccc2Cl)ncn1" , melting point observed: 76.2 °C

compound "COc1cccc(CCCc2c(CC#N)ccc(OC)c2OC)c1" , melting point observed: 78 to 79 °C

compound "CCOC(=O)Cn1c(=O)n(Cc2ccc(Cl)cc2)c(=O)c2c(C)c(C)sc21" , melting point observed: 151 to 152 °C

compound "Cn1c([N+](=O)[O-])cnc1COc1ccc(C(F)(F)F)cc1[N+](=O)[O-]" , melting point observed: 126 °C

compound COc1ccc2c(c1)CC(=O)NC2c1ccc(Cl)cc1 (stereo unspecified) , melting point observed: 200 to 201 °C

compound N#CCCN1C(=O)C(O)(c2cccc(Cl)c2)c2ccccc21 (stereo unspecified) , melting point observed: 149 to 150 °C

compound "CC(=O)Oc1ccc2c(c1)OC(c1ccccc1)(c1ccccc1)O2" , melting point observed: 81.5 to 82.5 °C

compound "Cc1nc2cc(NS(=O)(=O)c3cc(Cl)ccc3Cl)ccc2o1" , melting point observed: 194 °C

compound "CCOCc1nc2c(N)nc(C)c(C)c2n1NCCCNC(=O)NC(C)C" , melting point observed: 203 to 205 °C

compound "CCOc1cccc(C)c1S(=O)(=O)NC(=O)n1nc(OCC)n(C)c1=O" , melting point observed: 160 °C

compound "COc1cccc(/C=C/C(=O)/C=C/C(=O)O)c1" , melting point observed: 158 to 160 °C

compound CCCCCN(CCC12CC3CC(CC(C3)C1)C2)C(=O)NCC(CC)Cc1ccncc1 (stereo unspecified) , melting point observed: 72 to 77 °C

compound CC1(C)NC(=O)C2CNCCN21 (stereo unspecified) , melting point observed: 174 °C

compound "N#Cc1c[nH]cc1-c1ccccc1Cl" , melting point observed: 138 to 139 °C

compound "Cc1nn(-c2ccccn2)c2[nH]c3ccc(N)cc3c(=O)c12" , melting point observed: 260 to 262 °C

compound CCC(C(C)C)C(OC(C)=O)C(OC(C)=O)C(C)C1CCC2C3CC(=O)C4CC=CCC4(C)C3CCC12C (stereo unspecified) , melting point observed: 116 to 118 °C

* * *

Assignment: determine reported melting point for the given compounds.

compound "COc1ccc2nccc([C@@H]3CN(CCCNS(=O)(=O)c4ccc5c(c4)NC(=O)CS5)C(=O)O3)c2c1" , melting point observed: 135 to 140 °C

compound Cc1ccc(N2C(=O)C(O)=C(C(=O)c3ccc(OC(F)(F)F)cc3)C2c2ccc(C(C)C)cc2)nn1 (centres undefined) , melting point observed: 269 °C

compound "COc1cc(NC(=N)Nc2ccc3c4c(cccc24)CC3)cc2ccccc12" , melting point observed: 191 to 192 °C

compound "CC(C)CCC[C@H](NC(=O)[C@@H](N)Cc1c[nH]cn1)[C@@H](O)C1CCCCC1" , melting point observed: 126 to 130 °C

compound "CC(C)c1c(CO)n(-c2ccc(F)cc2)c(=O)c2ccccc12" , melting point observed: 157 to 158 °C

compound "C=CCn1c(C)c(C)c2cnnc(OCc3ccc(F)cc3F)c21" , melting point observed: 125 to 126 °C

compound "COc1c(C2CCN(CCCCNC(=O)c3ccc(-c4ccc(NC(=O)C(F)(F)F)cc4)cc3)CC2)ccc2c1CCCC2" , melting point observed: 226 to 228 °C

compound C#CC1(COCc2ccccc2)OC(n2ccc(=O)[nH]c2=O)C(OC(C)=O)C1OCc1ccccc1 (centres undefined) , melting point observed: 105 to 106 °C

compound CNC1CCc2[nH]c3ccc(OCc4ccccc4)cc3c2C1 (centres undefined) , melting point observed: 120 to 121 °C

* * *

measured-quantity: melting point

compound "CCOC(=N)c1cccc(C)c1OC" , melting point observed: 93 to 96 °C

compound CC1(C(=O)O)CCCc2cc(C3CCCCC3)ccc21 (stereo unspecified) , melting point observed: 128 to 129 °C

compound OC1C2CCN(CC2)C1CN1CCCCC1 (stereo unspecified) , melting point observed: 130 to 131 °C

compound CCC(CC(Cc1cccc2ccccc12)C(=O)N[C@@H](Cc1c[nH]cn1)C(=O)N[C@H](C=NNC(N)=O)CC(C)C)c1ccccc1 (stereo partly specified) , melting point observed: 105 to 109 °C

compound COc1cc2c(cc1OC)C(C(C#N)SCCO)=NCC2 (stereo unspecified) , melting point observed: 138 to 140 °C

compound "Cc1cc(-c2cccc(C(F)(F)F)c2)n2nc(C(F)(F)F)nc2n1" , melting point observed: 133 to 134 °C

compound "O=C(c1ccccc1)N1CCc2cc(CCl)ccc21" , melting point observed: 108 to 110 °C

compound "CCOc1ccc(-c2cc(C(F)(F)F)n3ncc(-c4ccncc4)c3n2)cc1C(F)(F)F" , melting point observed: 233 °C

compound "O=C(Nc1nc2ccccc2n1CCCN1CCNCC1)c1ccc(C(F)(F)F)cc1" , melting point observed: 184 to 185 °C

compound "CC(C)=CCCn1ccnc1[N+](=O)[O-]" , melting point observed: 49 to 51 °C

compound "CCOC(=O)c1c(CN(C)O)nc2sc3c(c2c1-c1ccc(OC)c(OC)c1)CCN(C(=O)c1ccccc1)C3" , melting point observed: 129 to 130 °C

compound "CC(=O)N1CCN=C1Nc1cc(C)nn1-c1ccccc1C" , melting point observed: 160 to 161 °C

compound "Cc1c(C(=O)N(C)Cc2ccc3c(Br)c(OCC#N)ccc3c2)oc2ccccc12" , melting point observed: 35 to 38 °C

compound "O=C(Nc1ccc(Cl)cn1)c1cc(Cl)ccc1NCC1CCN(C2CCCCC2)CC1" , melting point observed: 186 to 188 °C

compound "N#CSc1nc(Nc2ccc(Cl)cc2)ncc1[N+](=O)[O-]" , melting point observed: 240 to 242 °C

compound "COc1ccc(-c2cc(F)c(F)cc2-c2ccc(S(C)(=O)=O)cc2)cc1F" , melting point observed: 159 to 160 °C

compound "COc1cc(Cl)nnc1NS(=O)(=O)c1cccc(Cl)c1Cl" , melting point observed: 226 to 227 °C

compound "COC(=O)c1cc(C(=O)OC)n(-c2ccc([N+](=O)[O-])cc2C(=O)c2ccccc2)n1" , melting point observed: 150 to 152 °C

compound "CS(=O)(=O)c1ccc(-c2nnsc2-c2ccccc2)cc1" , melting point observed: 154 to 155 °C

compound CC(N1C(=O)C(=O)N(c2ccc(Br)cc2)C1=S)C(C)(C)C (stereo unspecified) , melting point observed: 207 to 208 °C

compound NC1=NS(=O)N=C1NCCCCN(Cc1ccc(Cl)cc1)c1ccccn1 (stereo unspecified) , melting point observed: 175 to 177 °C

compound C=CCC1(C(C)CC(=O)OCC)C(=O)NC(=O)NC1=O (stereo unspecified) , melting point observed: 114 °C

compound OC1CSC(Oc2ccc(-c3ccc(F)nc3)nc2Cl)C(O)C1O (stereo unspecified) , melting point observed: 199 °C

compound CC(=O)OCC1OC(c2ccc(F)c(Cc3cccs3)c2)C(OC(C)=O)C(OC(C)=O)C1OC(C)=O (stereo unspecified) , melting point observed: 119 to 121 °C

compound "CCOC(=O)c1cc2cc(N=[N+]=[N-])ccc2[nH]1" , melting point observed: 140 °C

compound "CS(=O)(=O)c1ccc(-c2cc(C(=O)CCCCCO)nn2C2CCCCC2)cc1" , melting point observed: 125 to 127 °C

compound COc1ccc(C(C)(O)c2ocnc2C)cc1 (stereo unspecified) , melting point observed: 115 to 116 °C

compound "COc1cc2c(cc1OC)C1=NCCc3cccc(c31)C2=O" , melting point observed: 228 °C

compound "CC(C)Cn1c(=O)n(C)c(=O)c2c(Sc3cccs3)c(Cn3cnc4ccccc43)sc21" , melting point observed: 198 °C

compound "O=C(O)Cc1ccc(CCNC(=O)c2ccc(Cl)cc2)cc1" , melting point observed: 182 to 183 °C

compound "O=C(O)c1cc2nc(C(F)(F)F)ccc2n1Cc1cccc(F)c1" , melting point observed: 254 to 255 °C

compound "Cn1cc(C(=O)O)c(=O)c2sc(-c3ccccc3)cc21" , melting point observed: 290 to 292 °C

compound "CCSc1cc(C)nc(SCC)c1NC(=O)CSc1nc2cccc(C(=O)OC)c2o1" , melting point observed: 168 to 169 °C

compound "O=C(Nc1nccs1)c1nc(-c2ccc([N+](=O)[O-])cc2)[nH]c1-c1ccc(CCl)cc1" , melting point observed: > 280 °C

compound "COc1cc2cnn(CCCl)c(=O)c2cc1OC" , melting point observed: 181 to 183 °C

compound "O=S(=O)(/C=C/c1ccccc1)c1ncc(Cl)cn1" , melting point observed: 150 °C

compound "Cc1nc2cnc3ccccc3c2[nH]1" , melting point observed: 242 to 245 °C

compound "O=C(O)CCCCCCCCCCc1ccc(F)cc1F" , melting point observed: 56 °C

compound "O=C(c1cccc(O)c1)c1cccc(Cl)c1" , melting point observed: 104 °C

compound "COC(=O)COc1ccc2cc(CNC(=O)c3cc(-c4ccc(Cl)cc4)oc3C(F)(F)F)ccc2c1" , melting point observed: 182 to 183 °C

compound "Cn1cnc2c1c(=O)n(CCCCC(=O)CBr)c(=O)n2C" , melting point observed: 125 to 135 °C
